Assay: refractive index (Na D-line) (dimensionless); xn = mol fraction of the nth substance listed
Conditions: 293.15 K; 100 kPa; Liquid; Standard Abbe refractometry; x1 = 0.25
± gives the expanded uncertainty stated by the source.
// values below are reported refractive index
outcome-measure: refractive index

                                   compound   outcome_measure         reported
0  C[N+](C)(C)Cc1ccccc1.[Cl-] [trimethylbenzylammonium chloride] + OCCOCCOCCO  refractive index  1.4894 ± 0.0011
1  CCCC[N+](CCCC)(CCCC)Cc1ccccc1.[Cl-] [benzyltributylammonium chloride] + OCCOCCO  refractive index  1.4929 ± 0.0011
2  CCCC[N+](CCCC)(CCCC)Cc1ccccc1.[Cl-] [benzyltributylammonium chloride] + OCC(O)CO  refractive index  1.5065 ± 0.0011
3  C[N+](C)(C)Cc1ccccc1.[Cl-] [trimethylbenzylammonium chloride] + OCCOCCO  refractive index  1.4925 ± 0.0011

---

# refractive index per record follows
Test: refractive index (Na D-line) (dimensionless); xn = mol fraction of the nth substance listed
Details: 308.15 K; 100 kPa; Liquid; Standard Abbe refractometry; x1 = 0.25
± gives the expanded uncertainty stated by the source.
outcome-measure: refractive index

In [3]: df
Out[3]:
                                   molecule         reported
0  CCCC[N+](CCCC)(CCCC)Cc1ccccc1.[Cl-] [benzyltributylammonium chloride] + OCCOCCO  1.4878 ± 0.0011
1  C[N+](C)(C)Cc1ccccc1.[Cl-] [trimethylbenzylammonium chloride] + OCCOCCO  1.4884 ± 0.0011
2  C[N+](C)(C)Cc1ccccc1.[Cl-] [trimethylbenzylammonium chloride] + OCCOCCOCCO  1.4849 ± 0.0011
3  C[N+](C)(C)Cc1ccccc1.[Cl-] [trimethylbenzylammonium chloride] + OCC(O)CO  1.5064 ± 0.0011

---

Experiment: xn = mol fraction of the nth substance listed
Conditions: 298.15 K; 100 kPa; Liquid; Vibrating tube method; x1 = 0.25
Documented mass density across a set of molecules
outcome-measure: mass density (kg/m3)

>>> df
                                   molecule  outcome_measure  reported
0  CCCC[N+](CCCC)(CCCC)Cc1ccccc1.[Cl-] [benzyltributylammonium chloride] + OCC(O)CO     mass density   1102.66
1  C[N+](C)(C)Cc1ccccc1.[Cl-] [trimethylbenzylammonium chloride] + OCC(O)CO     mass density   1182.02
2  CCCC[N+](CCCC)(CCCC)Cc1ccccc1.[Cl-] [benzyltributylammonium chloride] + OCCOCCOCCO     mass density   1068.09
3  CCCC[N+](CCCC)(CCCC)Cc1ccccc1.[Cl-] [benzyltributylammonium chloride] + OCCO     mass density   1035.88
4  C[N+](C)(C)Cc1ccccc1.[Cl-] [trimethylbenzylammonium chloride] + OCCOCCOCCO     mass density   1117.31
5  CCCC[N+](CCCC)(CCCC)Cc1ccccc1.[Cl-] [benzyltributylammonium chloride] + OCCOCCO     mass density   1054.57
6  C[N+](C)(C)Cc1ccccc1.[Cl-] [trimethylbenzylammonium chloride] + OCCO     mass density   1100.92
7  C[N+](C)(C)Cc1ccccc1.[Cl-] [trimethylbenzylammonium chloride] + OCCOCCO     mass density    1110.6
